Target: UniProt:P56373
Assay: P2X3 FLIPR intracellular calcium assay
Details: agonist at EC75, species (human or rat) not given
pIC50: −log10 of the molar value.
# maps each entry to its pIC50

> print(dat)
                                   compound    assay.target  observation.type      observed
1  Cc1ccc(-c2cnc3c(-n4nnnc4C4CCC4)cc(C(=O)NCc4ccn(C)c(=O)c4)cn23)s1 [Example 161]  UniProt:P56373             pIC50        < 5.00
2  COC1(C)CCN(c2cc(C(=O)N[C@@H](C)c3nnc[nH]3)cn3c(-c4ccc(C)s4)cnc23)CC1 [Example 139]  UniProt:P56373             pIC50  7.00 to 9.00
3  Cc1noc([C@@H](C)NC(=O)c2cc(-n3nnnc3C(C)(F)F)c3ncc(-c4ccc(C)s4)n3c2)n1 [Example 186]  UniProt:P56373             pIC50        < 5.00

Recorded pIC50 (compound CC[C@H](NC(=O)c1cc(-n2nncc2C(F)F)c2ncc(-c3ccc(C)s3)n2c1)c1nnc[nH]1 [Example 52] ): 7.00 to 9.00

Quick note, pIC50 for CC[C@H](NC(=O)c1cc(-n2nncc2C(C)C)c2ncc(-c3ccc(Cl)s3)n2c1)c1nnc[nH]1 [Example 69] landed at 7.00 to 9.00

CCc1nnnn1-c1cc(C(=O)N[C@@H](C)c2nnc[nH]2)cn2c(-c3ccc(C)s3)cnc12 [Example 178] has a reported pIC50 of 7.00 to 9.00

Data point: Cc1ccc(-c2cnc3c(N4CCC(F)(F)CC4)cc(C(=O)N[C@H](c4nnc[nH]4)C(C)C)cn23)s1 [Example 145] ; pIC50 = 5.00 to 6.00

* * *

Target: P2X2/3 (Homo sapiens, UniProt P56373+Q9UBL9)
Sequence (Q9UBL9 whole entry, one chain of several): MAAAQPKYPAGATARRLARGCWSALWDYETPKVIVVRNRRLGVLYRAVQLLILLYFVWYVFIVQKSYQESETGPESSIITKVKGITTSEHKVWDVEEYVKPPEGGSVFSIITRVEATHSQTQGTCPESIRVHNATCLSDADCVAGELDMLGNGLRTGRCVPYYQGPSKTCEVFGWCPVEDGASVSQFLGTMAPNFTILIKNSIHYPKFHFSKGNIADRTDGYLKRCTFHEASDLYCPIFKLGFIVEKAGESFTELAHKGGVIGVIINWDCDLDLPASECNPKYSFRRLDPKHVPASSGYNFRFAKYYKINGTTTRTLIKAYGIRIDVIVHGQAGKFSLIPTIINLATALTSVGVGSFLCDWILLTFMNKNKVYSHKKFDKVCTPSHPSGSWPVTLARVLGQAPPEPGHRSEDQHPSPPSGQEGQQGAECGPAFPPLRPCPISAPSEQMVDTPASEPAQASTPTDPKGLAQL
Assay: P2X2/3 FLIPR intracellular calcium assay
Conditions: agonist at EC75, species (human or rat) not given
In this section, each of the molecules is paired with its reported IC50.

> print(dat)
                                   molecule                              assay.target          observed
1  CC[C@H](NC(=O)c1cc(N2CCC(OC)CC2)c2ncc(-c3ccc(C)s3)n2c1)c1nnc[nH]1  P2X2/3 (Homo sapiens, UniProt P56373+Q9UBL9)    100 to 1000 nM
2  Cc1ccc(CNC(=O)c2cc(-n3nncc3C(F)F)c3ncc(-c4nnc(C)s4)n3c2)cn1  P2X2/3 (Homo sapiens, UniProt P56373+Q9UBL9)    100 to 1000 nM
3  CCc1cnnn1-c1cc(C(=O)NCc2cnc(C)cn2)cn2c(-c3ccc(C)s3)cnc12  P2X2/3 (Homo sapiens, UniProt P56373+Q9UBL9)       1 to 100 nM
4  Cc1cccc(-c2cnc3c(N4CCC(C)CC4)cc(C(=O)N[C@@H](C)c4ncn[nH]4)cn23)c1  P2X2/3 (Homo sapiens, UniProt P56373+Q9UBL9)  1000 to 10000 nM
5  CCc1cnnn1-c1cc(C(=O)N[C@H](C)c2nc(C)no2)cn2c(-c3ccc(C)s3)cnc12  P2X2/3 (Homo sapiens, UniProt P56373+Q9UBL9)       1 to 100 nM

Alright, here's another molecule for you.
Looking up CCCSc1cnc2c(N3CCC(C)CC3)cc(C(=O)N[C@@H](C)c3nnc[nH]3)cn12 , I see its IC50 listed as 1000 to 10000 nM

* * *

Biological target: P2X3 (UniProt P56373)
Sequence (P56373 1-397): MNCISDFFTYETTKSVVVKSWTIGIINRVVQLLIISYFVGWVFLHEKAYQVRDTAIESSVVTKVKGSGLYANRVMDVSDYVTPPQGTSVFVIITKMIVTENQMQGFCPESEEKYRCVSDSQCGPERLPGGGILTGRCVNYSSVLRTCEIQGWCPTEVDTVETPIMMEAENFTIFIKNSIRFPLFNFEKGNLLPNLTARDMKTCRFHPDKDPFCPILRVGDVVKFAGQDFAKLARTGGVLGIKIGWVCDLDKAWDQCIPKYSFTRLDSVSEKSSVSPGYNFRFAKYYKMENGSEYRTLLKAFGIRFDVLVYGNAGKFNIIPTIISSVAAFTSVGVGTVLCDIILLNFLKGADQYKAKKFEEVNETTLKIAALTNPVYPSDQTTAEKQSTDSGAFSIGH
Assay: P2X3 FLIPR intracellular calcium assay
Settings: agonist at EC75, species (human or rat) not given
OBSERVATION TYPE: IC50

Example entries begin here.
> print(dat)
                                   compound  observation.type        observed
1  Cc1ccc(-c2cnc3c(-c4cnn(CC5CC5)c4)cc(C(=O)N[C@@H](C)c4nnc[nH]4)cn23)s1              IC50     1 to 100 nM
2  Cc1ncc(CNC(=O)c2cc(-n3nncc3C(F)(F)F)c3ncc(-c4ccc(C)s4)n3c2)cn1              IC50     1 to 100 nM
3  COc1ncc(CNC(=O)c2cc(-n3nncc3C(F)F)c3ncc(-c4ccc(C)s4)n3c2)cn1              IC50     1 to 100 nM
4  CC1CCN(c2cc(C(=O)N[C@@H](C)c3nnc[nH]3)cn3c(-c4ccc(Cl)s4)cnc23)CC1              IC50  100 to 1000 nM
5  Cc1ccc(CNC(=O)c2cc(-n3nnnc3C3CCC3)c3ncc(-c4ccc(C)s4)n3c2)cn1              IC50      > 10000 nM

Per the records, this compound ( Cc1ncc(CNC(=O)c2cc(-n3nncc3C(F)F)c3ncc(-c4ccc(C)o4)n3c2)cn1 ) has IC50 equal to 1 to 100 nM

Sample CCC(=O)N(c1cc(C(=O)N[C@@H](C)c2nnc[nH]2)cn2c(-c3ccc(C)s3)cnc12)C1CC1 ; IC50 observed: 1 to 100 nM

* * *

A collection of compounds and their measured IC50
Target: P2X3 (UniProt P56373)
Test: P2X3 FLIPR intracellular calcium assay
Conditions: agonist at EC75, species (human or rat) not given

> print(dat)
                                   compound     observed
1  Cc1ccc(CNC(=O)c2cc(-n3nncc3C(F)(F)F)c3ncc(-c4ccc(C)s4)n3c2)cn1  1 to 100 nM

// IC50 lookup, compound = Cc1ccc(-c2cnc3c(-n4nncc4C(C)C)cc(C(=O)N[C@@H](C)c4nnc[nH]4)cn23)s1 , result: 1 to 100 nM

For this compound ( Cc1ncc(CNC(=O)c2cc(-c3c(C)n[nH]c3C)c3ncc(-c4ccc(C)s4)n3c2)cn1 ), measured IC50 is > 10000 nM

Kindly note the recorded IC50 for C[C@H](NC(=O)c1cc(-n2nncc2C(F)F)c2ncc(-c3ccc(Cl)s3)n2c1)c1nnc[nH]1 , which is 1 to 100 nM

Looking up Cc1cnc(CNC(=O)c2cc(-n3nncc3C(F)F)c3ncc(-c4ccc(C)s4)n3c2)cn1 , I see its IC50 listed as 1 to 100 nM

Data point: Cc1ncc(CNC(=O)c2cc(-n3nnnc3C(F)F)c3ncc(-c4ccc(Cl)s4)n3c2)cn1 ; IC50 = 100 to 1000 nM

# IC50 (compound: Cc1ccc(CNC(=O)c2cc(-n3nnnc3CO)c3ncc(-c4ccc(C)s4)n3c2)cn1 ) is 100 to 1000 nM

Short answer for CC[C@H](NC(=O)c1cc(-n2nncc2C(C)C)c2ncc(-c3ccc(C)s3)n2c1)c1nnc[nH]1 : IC50 was 1 to 100 nM

# IC50 (compound: Cc1ccc(-c2cnc3c(Nc4nccs4)cc(C(=O)NCc4ccn(C)c(=O)c4)cn23)s1 ) is 100 to 1000 nM

Note to self: IC50 recorded for CCc1nnnn1-c1cc(C(=O)NCc2ccc(C3CC3)nc2)cn2c(-c3ccc(C)s3)cnc12 was 100 to 1000 nM

// field: IC50; key: Cc1cnc(CNC(=O)c2cc(-n3nnnc3C3CCC3)c3ncc(-c4ccc(C)s4)n3c2)cn1 ; value = > 10000 nM

Noted for Cc1ccc(-c2cnc3c(-n4nncc4C(F)F)cc(C(=O)N[C@H](c4nnc[nH]4)C(C)C)cn23)s1 : its IC50 reads 1 to 100 nM

Per the records, this compound ( Cc1ccc(CNC(=O)c2cc(-n3nncc3C(F)F)c3ncc(-c4nnc(C)s4)n3c2)cn1 ) has IC50 equal to 100 to 1000 nM

Measured IC50, Cc1ncc(CNC(=O)c2cc(-n3nncc3CC(F)(F)F)c3ncc(-c4ccc(C)s4)n3c2)cn1 : 1 to 100 nM

The recorded IC50 for Cc1ccc(-c2cc(C(=O)N[C@@H](C)c3nnc[nH]3)cn3c(-c4ccc(C)s4)cnc23)s1 is 1 to 100 nM

Lab note: Cc1ncc(CNC(=O)c2cc(-n3nnnc3C(F)F)c3ncc(-c4ccc(C)o4)n3c2)cn1 gave IC50 of 100 to 1000 nM

The compound listed as Cc1ccc(-c2cnc3c(-n4nncc4C4CC4)cc(C(=O)N[C@@H](C)c4nnc[nH]4)cn23)s1 shows IC50 equal to 1 to 100 nM

The compound listed as Cc1ccc(-c2cnc3c(-n4nncc4C4CCC4)cc(C(=O)N[C@@H](C)c4nnc[nH]4)cn23)s1 has a reported IC50 of 1 to 100 nM
